Overview of reported viability at 48 h, 25 µM across a group of compounds:
Experiment: in vitro
Conditions: human, hek293t cells

compound: CCn1cc(C2CN(C(=O)C(C)Cl)CCO2)cn1 (centres unmarked)
viability at 48 h, 25 µM / %: 89.1
//
compound: C=CC(=O)Nc1cnn(CC(F)(F)F)c1
viability at 48 h, 25 µM / %: 91.8
//
compound: C=CC(=O)N1CCC(C(=O)N2CCCC2COC)CC1 (centres unmarked)
viability at 48 h, 25 µM / %: 116
//
compound: Cc1cc(C=C(C#N)C(=O)N2CC[C@H](O)C2)c(C)n1CC1CCCO1 (some centres unmarked)
viability at 48 h, 25 µM / %: 131
//
compound: C=CC(=O)N1CCC(C(=O)Nc2ccccc2NS(C)(=O)=O)CC1
viability at 48 h, 25 µM / %: 82.7
//
compound: Cc1cc(C)c(NC(=O)C(C)Cl)c(C)c1 (centres unmarked)
viability at 48 h, 25 µM / %: 140
//
compound: C=CC(=O)N1CCCC1c1cccc(C)c1 (centres unmarked)
viability at 48 h, 25 µM / %: 110
//
compound: Cc1ccc(F)cc1NC(=O)CCl
viability at 48 h, 25 µM / %: 0.509
//
compound: CN1C(=C(C#N)C(=O)CCl)Sc2ccccc21
viability at 48 h, 25 µM / %: 77.5
//
compound: Cn1cc(C(=O)CCl)cc1C(=O)C(Cl)(Cl)Cl
viability at 48 h, 25 µM / %: 1.4
//
compound: Cc1ccc(Sc2ccc(NC(=O)CCl)cc2)cc1C
viability at 48 h, 25 µM / %: -0.101

----------
Assay: in vitro
Details: human, hek293t cells
assay_readout: viability at 48 h, 25 µM

compound: Cc1cccc(NC(=O)CCl)c1C [4-D04, 2-chloro-N-(2,3-dimethylphenyl)acetamide]
assay_readout: viability at 48 h, 25 µM
result: 1.62%

compound: C=CC(=O)NC1CCN(c2ccc(Cl)c(Cl)c2)C1 (centres unmarked)
assay_readout: viability at 48 h, 25 µM
result: 52.9%

compound: CCN(C(=O)CCl)C(c1ccccc1)c1ccc(F)cc1 (centres unmarked)
assay_readout: viability at 48 h, 25 µM
result: 0.263%

compound: C=CC(=O)N(Cc1cccc2cccnc12)C1CCCN(CC)C1 (centres unmarked)
assay_readout: viability at 48 h, 25 µM
result: 55.3%

compound: O=C(CCl)N[C@H]1C[C@H](c2ccccc2)C1
assay_readout: viability at 48 h, 25 µM
result: 0.742%

compound: Cc1ccc(C=C(C#N)C(=O)NCCc2ccccc2)o1
assay_readout: viability at 48 h, 25 µM
result: 118%

compound: O=C(CCl)Nc1ncc(Cc2ccccc2Cl)s1
assay_readout: viability at 48 h, 25 µM
result: -0.245%

compound: C=CC(=O)N1CCC(C(=O)Nc2cccc(N3CCCC3=O)c2)CC1
assay_readout: viability at 48 h, 25 µM
result: 84.3%

compound: C=CC(=O)Nc1cc(C)nn1-c1ccccc1F
assay_readout: viability at 48 h, 25 µM
result: 180%

compound: O=C(CCl)NCc1cn[nH]c1C(F)F
assay_readout: viability at 48 h, 25 µM
result: 0.404%

compound: C=CC(=O)Nc1cc(C)c(CC)cc1OC
assay_readout: viability at 48 h, 25 µM
result: 82%
